Source: BindingDB's records for doi:10.1021/jm020889p

molecular target: Sigma-2 receptor (TMEM97) (Rattus norvegicus); assay: Ability to displace [3H]ditolylguanidine in the presence of 100 nM (+)-pentazocine from Sigma opioid receptor type 2 of rat liver
readout_kind: Ki

Solved entries:
O=CCC1Cc2ccccc2C2(CCN(Cc3ccccc3)CC2)O1 (stereo not given)	9.91 µM
CCOC(=O)CC1OC2(CCN(Cc3ccccc3)CC2)c2ccccc21 (stereo not given)	6.77 µM
CCOC(=O)CC1Cc2ccccc2C2(CCN(Cc3ccccc3)CC2)O1 (stereo not given)	22.7 µM
CCOC(=O)C1Cc2ccccc2C2(CCN(Cc3ccccc3)CC2)O1 (stereo not given)	10.5 µM

Q: Supply Ki value. Item: OCC1Cc2ccccc2C2(CCN(Cc3ccccc3)CC2)O1 (stereo not given)
Ans: 2.09 µM

Q: Supply Ki value. Item: N#CCC1Cc2ccccc2C2(CCN(Cc3ccccc3)CC2)O1 (stereo not given)
Ans: 4.7 µM

Q: Supply Ki value. Item: CNCCC1Cc2ccccc2C2(CCN(Cc3ccccc3)CC2)O1 (stereo not given)
Ans: 4.36 µM

Q: Supply Ki value. Item: N#CCC1OC2(CCN(Cc3ccccc3)CC2)c2ccccc21 (stereo not given)
Ans: 1.66 µM

Q: Supply Ki value. Item: OCCC1Cc2ccccc2C2(CCN(Cc3ccccc3)CC2)O1 (stereo not given)
Ans: 8.46 µM

Q: Supply Ki value. Item: CCOC(=O)C1OC2(CCN(Cc3ccccc3)CC2)c2ccccc21 (stereo not given)
Ans: 7.13 µM

###

target: Sigma non-opioid intracellular receptor 1 (Cavia porcellus) (UniProt Q60492); experiment: Ability to displace [3H](+)-pentazocine from Sigma opioid receptor type 1 of guinea pig brain
Sequence (Q60492 whole entry, looked up): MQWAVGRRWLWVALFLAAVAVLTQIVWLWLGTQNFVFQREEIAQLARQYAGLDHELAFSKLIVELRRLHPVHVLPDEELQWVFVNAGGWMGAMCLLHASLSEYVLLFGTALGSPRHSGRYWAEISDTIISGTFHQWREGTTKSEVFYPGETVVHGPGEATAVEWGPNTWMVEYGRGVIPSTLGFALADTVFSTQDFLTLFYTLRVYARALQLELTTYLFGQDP
Known Ki of a selection of compounds
Note: unit nM is implicit; provide only the numeric part.

N#CCC1OC2(CCN(Cc3ccccc3)CC2)c2ccccc21 (configuration not stated)	2.16
CCOC(=O)CC1OC2(CCN(Cc3ccccc3)CC2)c2ccccc21 (configuration not stated)	15.1

Q: Supply Ki value. Item: OCCC1Cc2ccccc2C2(CCN(Cc3ccccc3)CC2)O1 (configuration not stated)
Ans: 12.7

Q: Supply Ki value. Item: CCOC(=O)C1OC2(CCN(Cc3ccccc3)CC2)c2ccccc21 (configuration not stated)
Ans: 8.95

###

target: Sigma non-opioid intracellular receptor 1 (Cavia porcellus); assay: Ability to displace [3H](+)-pentazocine from Sigma opioid receptor type 1 of guinea pig brain
// NB: equality with 60 nM counts as 0 (no); only Ki strictly below is 1 (yes)

CNCCC1Cc2ccccc2C2(CCN(Cc3ccccc3)CC2)O1 (stereo not drawn)	0 (no)
CCOC(=O)C1Cc2ccccc2C2(CCN(Cc3ccccc3)CC2)O1 (stereo not drawn)	1 (yes)
N#CCC1Cc2ccccc2C2(CCN(Cc3ccccc3)CC2)O1 (stereo not drawn)	1 (yes)
OCC1Cc2ccccc2C2(CCN(Cc3ccccc3)CC2)O1 (stereo not drawn)	1 (yes)
N#CC1OC2(CCN(Cc3ccccc3)CC2)c2ccccc21 (stereo not drawn)	1 (yes)

Q: Given CCOC(=O)CC1Cc2ccccc2C2(CCN(Cc3ccccc3)CC2)O1 (stereo not drawn) , is recorded Ki strictly lower than 60 nM?
Ans: 0 (no)

Q: Given O=CCC1Cc2ccccc2C2(CCN(Cc3ccccc3)CC2)O1 (stereo not drawn) , is recorded Ki strictly lower than 60 nM?
Ans: 1 (yes)

Q: Given CNC(=O)CC1Cc2ccccc2C2(CCN(Cc3ccccc3)CC2)O1 (stereo not drawn) , is recorded Ki strictly lower than 60 nM?
Ans: 0 (no)
